assay: compounds altering Cy5-DNA-NS3h complex signal – biochemical, LOPAC1280, artefact control for HCV NS3 helicase inhibitor project (AID 687037); conditions: Cy5-DNA-NS3h complex fluorescence interference counterscreen
Activity calls are given as the source filed them. How the calls were made is not given here.
measure name: fluorescence ratio (interference)

Some compounds with recorded fluorescence ratio (interference):
INSERT INTO assay_data (compound, value) VALUES
  ('CCCCCC[C@@H]([C@@H](C)O)n1cnc2c(N)ncnc21', '1 (inactive)'),
  ('Cc1nn(-c2ccccc2)c(C)c1C=NN1CCN(Cc2ccccc2)CC1', '1 (inactive)'),
  ('C[C@@]1(C2CCCC2)Cc2cc(OCC(=O)O)c(Cl)c(Cl)c2C1=O', '1 (inactive)'),
  ('O=c1c(O)c(-c2cc(O)c(O)c(O)c2)oc2cc(O)cc(O)c12', '1 (inactive)'),
  ('O=C1c2c(O)cc(O)cc2OC(c2ccc(O)c(O)c2)C1O (stereo not given)', '1 (inactive)');

What fluorescence ratio (interference) value was documented for this compound, `N#C/C(=C\c1ccc(O)c(O)c1)C(=O)NCCCc1ccccc1` ?
1 (inactive)

I have this compound here, `O=C(c1ccc(OCCCc2cnc[nH]2)cc1)C1CC1` , and I need its recorded fluorescence ratio (interference).
1 (inactive)

What value of measured fluorescence ratio (interference) is listed for `COc1ccc(-c2ccc(N)[n+](CCCC(=O)O)n2)cc1` ?
0.9 (inactive)
